pKi: −log10 of the molar value.
Below, pKi values reported for Adenosine receptor A3 (Homo sapiens, UniProt P0DMS8) across several publications.
Readout: pKi

{"Compound": "Cc1cc(-c2c(-c3cccc(C#N)c3)nn3ccc(C(=O)NC45CC(N)(C4)C5)nc23)cc(Cl)n1", "Relation operator": "<", "Assay result": 6.00}
{"Compound": "Cc1cc(-c2sc(NC(=O)N3CCC4(CCOC(=O)N4)CC3)nc2-c2cccc(C#N)c2)cc(C)n1", "Relation operator": "=", "Assay result": 6.33}
{"Compound": "COc1cccc(CNc2nc(N)c3nc(-c4ccco4)sc3n2)c1", "Relation operator": "=", "Assay result": 7.04}
{"Compound": "Cc1cc(-c2sc(NC(=O)N3CCC(C#N)(C#N)CC3)nc2-c2cccc(C#N)c2)cc(CO)n1", "Relation operator": "=", "Assay result": 6.21}
{"Compound": "Cc1cc(-c2sc(NC(=O)N3CCC(C#N)(C(C)(C)O)CC3)nc2-c2cccc(C#N)c2)cc(C)n1", "Relation operator": "=", "Assay result": 6.63}
{"Compound": "CCN1CCC(Nc2ccn3nc(-c4cccc(C#N)c4)c(-c4cc(C)nc(Cl)c4)c3n2)CC1", "Relation operator": "<", "Assay result": 6.00}
{"Compound": "Cc1cc(-c2sc(NC(=O)N3CCS(=N)(=O)CC3)nc2-c2cccc(C#N)c2)cc(C)n1", "Relation operator": "=", "Assay result": 6.06}
{"Compound": "Cc1cc(-c2c(-c3cccc(C#N)c3)nn3ccc(C(=O)NCC4(C)NC(=O)NC4=O)nc23)c(F)c(C)n1 (stereo not drawn)", "Relation operator": "<", "Assay result": 6.00}
{"Compound": "Cc1cc(-c2c(-c3cccc(C#N)c3)nn3ccc(CN)nc23)cc(Cl)n1", "Relation operator": "<", "Assay result": 6.00}
{"Compound": "Cc1cc(-c2c(-c3cccc(C#N)c3)nn3ccc(C(=O)NCC4(O)CCC4)nc23)cc(Cl)n1", "Relation operator": "<", "Assay result": 6.00}
{"Compound": "Cc1cc(-c2c(-c3cccc(C#N)c3)nn3ccc(N4C[C@@H]5NCCO[C@H]5C4)nc23)cc(Cl)n1", "Relation operator": "<", "Assay result": 6.00}
{"Compound": "Cc1cc(-c2sc(NC(=O)N3CCNC(=O)C3)nc2-c2cccc(C#N)c2)cc(C)n1", "Relation operator": "=", "Assay result": 6.71}
{"Compound": "Cc1cc(-c2c(-c3cccc(C#N)c3)nn3ccc(NC4CCN(C)C(=O)C4)nc23)cc(C)n1 (stereo not drawn)", "Relation operator": "<", "Assay result": 6.00}
{"Compound": "Cc1cc(-c2c(-c3cccc(C#N)c3)nn3ccc(NC(N)=O)nc23)cc(Cl)n1", "Relation operator": "<", "Assay result": 6.00}
{"Compound": "Cc1cc(-c2c(-c3cccc(C#N)c3)nn3ccc(C(=O)NCC4CNC(=O)CO4)nc23)cc(C)n1 (stereo not drawn)", "Relation operator": "<", "Assay result": 6.00}
